# EXPERIMENT DESCRIPTION: physchem
# TEST SETTINGS: water, thermodynamic from solid, solubility
READOUT NAME: Solubility

-- ask Indicate its recorded Solubility; the compound in question is Cc1c(C#Cc2cnc3ccc(N4CCC(O)CC4)nn23)cccc1C(=O)Nc1cc(Cl)cc(C(F)(F)F)c1 [Fumarate crystalline form I]
-- reply < 5000 µg/mL

---

# EXPERIMENT DESCRIPTION: Rough solubility of free base starting material, visually evaluated by solvent addition
# Assay type: physicochemical
# TEST SETTINGS: toluene, organic solvent or mixture, thermodynamic from solid, toluene; read-out: Solubility
READOUT NAME: Solubility

-- ask Indicate its recorded Solubility; the molecule in question is Cc1c(C#Cc2cnc3ccc(N4CCC(O)CC4)nn23)cccc1C(=O)Nc1cc(Cl)cc(C(F)(F)F)c1 [Free base crystalline form I]
-- reply < 1000 µg/mL

---

# EXPERIMENT DESCRIPTION: Rough solubility of free base starting material, visually evaluated by solvent addition
# Assay type: physicochemical
# TEST SETTINGS: ethanol, organic solvent or mixture, thermodynamic from solid, ethanol; read-out: Solubility
READOUT NAME: Solubility

-- ask Give the measured Solubility for Cc1c(C#Cc2cnc3ccc(N4CCC(O)CC4)nn23)cccc1C(=O)Nc1cc(Cl)cc(C(F)(F)F)c1 [Free base crystalline form I]
-- reply 5 to 20 mg/mL

---

# EXPERIMENT DESCRIPTION: Rough solubility of free base starting material, visually evaluated by solvent addition
# Assay type: physicochemical
# TEST SETTINGS: water, thermodynamic from solid, water; read-out: Solubility
READOUT NAME: Solubility

-- ask Dear colleague, please send me the reported Solubility for Cc1c(C#Cc2cnc3ccc(N4CCC(O)CC4)nn23)cccc1C(=O)Nc1cc(Cl)cc(C(F)(F)F)c1 [Free base crystalline form I] when you can.
-- reply < 1 mg/mL

---

# EXPERIMENT DESCRIPTION: Dynamic vapor sorption (DVS) hygroscopicity
# Type: physicochemical
# TEST SETTINGS: 80% RH
READOUT NAME: DVS The weight gains by vapor sorption % (%)
Just the number in %, nothing appended.

-- ask Tell me its DVS The weight gains by vapor sorption % given Cc1c(C#Cc2cnc3ccc(N4CCC(O)CC4)nn23)cccc1C(=O)Nc1cc(Cl)cc(C(F)(F)F)c1 [Phosphate crystalline form I] as the entry.
-- reply 1.3

-- ask Using known records, supply DVS The weight gains by vapor sorption % for Cc1c(C#Cc2cnc3ccc(N4CCC(O)CC4)nn23)cccc1C(=O)Nc1cc(Cl)cc(C(F)(F)F)c1 [Free base crystalline form I]
-- reply 0.8

-- ask For the compound Cc1c(C#Cc2cnc3ccc(N4CCC(O)CC4)nn23)cccc1C(=O)Nc1cc(Cl)cc(C(F)(F)F)c1 [L-camphor sulfonate crystalline form II] , give its reported DVS The weight gains by vapor sorption %.
-- reply 0.8

---

# EXPERIMENT DESCRIPTION: Rough solubility of free base starting material, visually evaluated by solvent addition
# Type: physicochemical
# TEST SETTINGS: methyl isobutyl ketone, organic solvent or mixture, thermodynamic from solid, methyl isobutyl ketone; read-out: Solubility
# Text: The rough solubility test of free base of compound A was visually evaluated by solvent addition, and the results were summarized in Table 1.
READOUT NAME: Solubility

-- ask Quickly give me recorded Solubility for Cc1c(C#Cc2cnc3ccc(N4CCC(O)CC4)nn23)cccc1C(=O)Nc1cc(Cl)cc(C(F)(F)F)c1 [Free base crystalline form I]
-- reply 5 to 20 mg/mL

---

# EXPERIMENT DESCRIPTION: Rough solubility of free base starting material, visually evaluated by solvent addition
# Type: physicochemical
# TEST SETTINGS: methyl tert-butyl ether, organic solvent or mixture, thermodynamic from solid, methyl tert-butyl ether; read-out: Solubility
READOUT NAME: Solubility

-- ask Look up Solubility of Cc1c(C#Cc2cnc3ccc(N4CCC(O)CC4)nn23)cccc1C(=O)Nc1cc(Cl)cc(C(F)(F)F)c1 [Free base crystalline form I] and report it.
-- reply 2000 to 5000 µg/mL

---

# EXPERIMENT DESCRIPTION: Solubility analysis in biological solvents (SGF, FaSSIF, FeSSIF) and water, with pH and XRPD of residual solid
# Format: physicochemical
# TEST SETTINGS: FeSSIF, 37 °C, pH 5, fessif, thermodynamic from solid, FeSSIF; read-out: solubility
READOUT NAME: Solubility

-- ask Supply reported Solubility belonging to this molecule: "Cc1c(C#Cc2cnc3ccc(N4CCC(O)CC4)nn23)cccc1C(=O)Nc1cc(Cl)cc(C(F)(F)F)c1"
-- reply 200 to 1900 µg/mL

---

# EXPERIMENT DESCRIPTION: Rough solubility of free base starting material, visually evaluated by solvent addition
# Type: physicochemical
# TEST SETTINGS: acetone, organic solvent or mixture, thermodynamic from solid, acetone; read-out: Solubility
READOUT NAME: Solubility

-- ask For the compound Cc1c(C#Cc2cnc3ccc(N4CCC(O)CC4)nn23)cccc1C(=O)Nc1cc(Cl)cc(C(F)(F)F)c1 [Free base crystalline form I] , give its reported Solubility.
-- reply 20 to 50 mg/mL

---

# EXPERIMENT DESCRIPTION: Rough solubility of free base starting material, visually evaluated by solvent addition
# Assay type: physicochemical
# TEST SETTINGS: ethyl acetate, organic solvent or mixture, thermodynamic from solid, ethyl acetate; read-out: Solubility
READOUT NAME: Solubility

-- ask Provide measured Solubility value, entry: Cc1c(C#Cc2cnc3ccc(N4CCC(O)CC4)nn23)cccc1C(=O)Nc1cc(Cl)cc(C(F)(F)F)c1 [Free base crystalline form I]
-- reply 5 to 20 mg/mL

---

# EXPERIMENT DESCRIPTION: Rough solubility of free base starting material, visually evaluated by solvent addition
# Assay type: physicochemical
# TEST SETTINGS: butanone, organic solvent or mixture, thermodynamic from solid, butanone; read-out: Solubility
READOUT NAME: Solubility

-- ask Tell me measured Solubility for Cc1c(C#Cc2cnc3ccc(N4CCC(O)CC4)nn23)cccc1C(=O)Nc1cc(Cl)cc(C(F)(F)F)c1 [Free base crystalline form I] please.
-- reply > 50 mg/mL

---

# EXPERIMENT DESCRIPTION: Dynamic vapor sorption (DVS) hygroscopicity
# Type: physicochemical
READOUT NAME: hygroscopicity (DVS)

Cc1c(C#Cc2cnc3ccc(N4CCC(O)CC4)nn23)cccc1C(=O)Nc1cc(Cl)cc(C(F)(F)F)c1 [L-camphor sulfonate crystalline form II]; slightly hygroscopic
Cc1c(C#Cc2cnc3ccc(N4CCC(O)CC4)nn23)cccc1C(=O)Nc1cc(Cl)cc(C(F)(F)F)c1 [Phosphate crystalline form I]; slightly hygroscopic
Cc1c(C#Cc2cnc3ccc(N4CCC(O)CC4)nn23)cccc1C(=O)Nc1cc(Cl)cc(C(F)(F)F)c1 [Free base crystalline form I]; slightly hygroscopic

---

# EXPERIMENT DESCRIPTION: Dynamic vapor sorption (DVS) hygroscopicity
# Format: physicochemical
# TEST SETTINGS: 90% RH
READOUT NAME: DVS The weight gains by vapor sorption % (%)
Could you give me the number in %? Just the number is fine.

-- ask Indicate the recorded DVS The weight gains by vapor sorption % value for this compound: Cc1c(C#Cc2cnc3ccc(N4CCC(O)CC4)nn23)cccc1C(=O)Nc1cc(Cl)cc(C(F)(F)F)c1 [L-camphor sulfonate crystalline form II]
-- reply 1.2

-- ask Quickly give me recorded DVS The weight gains by vapor sorption % for Cc1c(C#Cc2cnc3ccc(N4CCC(O)CC4)nn23)cccc1C(=O)Nc1cc(Cl)cc(C(F)(F)F)c1 [Phosphate crystalline form I]
-- reply 1.6

-- ask Dear colleague, please send me the reported DVS The weight gains by vapor sorption % for Cc1c(C#Cc2cnc3ccc(N4CCC(O)CC4)nn23)cccc1C(=O)Nc1cc(Cl)cc(C(F)(F)F)c1 [Free base crystalline form I] when you can.
-- reply 0.9

---

# EXPERIMENT DESCRIPTION: Rough solubility of free base starting material, visually evaluated by solvent addition
# Assay type: physicochemical
# TEST SETTINGS: dichloromethane, organic solvent or mixture, thermodynamic from solid, dichloromethane; read-out: Solubility
# Text: The rough solubility test of free base of compound A was visually evaluated by solvent addition, and the results were summarized in Table 1.
READOUT NAME: Solubility

-- ask State its Solubility for this molecule: Cc1c(C#Cc2cnc3ccc(N4CCC(O)CC4)nn23)cccc1C(=O)Nc1cc(Cl)cc(C(F)(F)F)c1 [Free base crystalline form I]
-- reply 3000 to 5000 µg/mL

---

# EXPERIMENT DESCRIPTION: Rough solubility of free base starting material, visually evaluated by solvent addition
# Assay type: physicochemical
# TEST SETTINGS: 2-methyltetrahydrofuran, organic solvent or mixture, thermodynamic from solid, 2-methyltetrahydrofuran; read-out: Solubility
READOUT NAME: Solubility

-- ask Please supply the value of reported Solubility for the item Cc1c(C#Cc2cnc3ccc(N4CCC(O)CC4)nn23)cccc1C(=O)Nc1cc(Cl)cc(C(F)(F)F)c1 [Free base crystalline form I]
-- reply > 50 mg/mL
